Biological target: angiotensin I-converting enzyme (ACE) (Homo sapiens, UniProt P12821)
Sequence (P12821 30-1306, species assumed): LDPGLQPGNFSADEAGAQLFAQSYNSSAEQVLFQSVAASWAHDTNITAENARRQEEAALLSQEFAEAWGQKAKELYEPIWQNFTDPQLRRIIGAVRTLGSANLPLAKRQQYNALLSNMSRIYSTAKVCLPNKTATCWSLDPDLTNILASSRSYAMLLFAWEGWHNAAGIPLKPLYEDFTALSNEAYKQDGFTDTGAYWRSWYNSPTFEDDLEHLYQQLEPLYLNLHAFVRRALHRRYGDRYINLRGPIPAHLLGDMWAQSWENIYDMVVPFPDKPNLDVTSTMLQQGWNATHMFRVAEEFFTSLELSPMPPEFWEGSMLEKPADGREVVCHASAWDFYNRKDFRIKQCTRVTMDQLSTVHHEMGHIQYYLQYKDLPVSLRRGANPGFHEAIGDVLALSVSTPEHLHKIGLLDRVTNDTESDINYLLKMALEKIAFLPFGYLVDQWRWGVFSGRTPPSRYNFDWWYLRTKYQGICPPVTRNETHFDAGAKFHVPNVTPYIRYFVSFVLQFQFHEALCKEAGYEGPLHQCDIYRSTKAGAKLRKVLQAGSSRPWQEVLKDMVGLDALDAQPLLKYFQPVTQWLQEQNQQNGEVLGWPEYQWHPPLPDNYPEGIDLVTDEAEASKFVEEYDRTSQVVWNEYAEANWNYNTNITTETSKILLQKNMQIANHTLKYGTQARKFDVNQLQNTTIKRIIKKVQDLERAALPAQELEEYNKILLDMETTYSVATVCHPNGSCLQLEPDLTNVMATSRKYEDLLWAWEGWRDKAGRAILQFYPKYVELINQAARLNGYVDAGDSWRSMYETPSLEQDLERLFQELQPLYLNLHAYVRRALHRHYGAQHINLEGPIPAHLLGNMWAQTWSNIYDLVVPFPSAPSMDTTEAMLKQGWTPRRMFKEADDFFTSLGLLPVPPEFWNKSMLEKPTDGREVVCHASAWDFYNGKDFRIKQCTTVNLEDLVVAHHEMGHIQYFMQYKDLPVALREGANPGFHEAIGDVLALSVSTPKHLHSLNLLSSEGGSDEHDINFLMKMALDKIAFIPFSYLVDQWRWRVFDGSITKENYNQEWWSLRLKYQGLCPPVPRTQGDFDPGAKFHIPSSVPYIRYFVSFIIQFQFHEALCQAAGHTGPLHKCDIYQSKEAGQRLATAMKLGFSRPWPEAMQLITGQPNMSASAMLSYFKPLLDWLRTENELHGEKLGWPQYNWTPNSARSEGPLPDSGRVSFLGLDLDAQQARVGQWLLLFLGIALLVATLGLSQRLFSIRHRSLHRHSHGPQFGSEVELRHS
Residues, ends and D or L forms follow the SMILES beside them.
parameter-measured: IC50

Which IC50 value is on record for CC(C)C[C@H](NC(=O)[C@H](C)N)C(=O)N[C@H](C(=O)N[C@@H](Cc1ccc(O)cc1)C(=O)O)C(C)C [ALVY] (H-ALVY-OH) ?
7.03 µM

What do you have for CC(C)C[C@H](NC(=O)[C@@H](N)CC(C)C)C(=O)N[C@H](C(=O)N[C@@H](Cc1ccc(O)cc1)C(=O)O)C(C)C [LLVY] (H-LLVY-OH) ?
87.8 µM

====

Molecular target: angiotensin I-converting enzyme (ACE) (Homo sapiens, UniProt P12821)
Test: In vitro ACE inhibitory assay (HHL substrate, RP-HPLC detection)
Format: biochemical
Conditions: synthetic peptides, purity >95%; HHL substrate 2.5 mM (30 µL), ACE 0.05 mU/µL (20 µL), pre-incubation 37 °C 5 min, incubation 37 °C 30 min; HPLC-UV 228 nm; non-linear regression, nine concentrations, repeated three times; read-out: IC50 of synthetic peptides against ACE
No end group written: not given here.
parameter-measured: IC50

Which IC50 value is on record for LSTSTDVR-OH [LSTSTDVR] ?
> 167 µM

What do you have for LLAPHY [LLAPHY] ?
15.9 µM

Data credit: paper PMC7587174
